Below, each of the compounds is paired with its reported Dmax value.
# target.desc: PLK1 (Homo sapiens)
# Construct: endogenous in cells; host or cells: HeLa
# Sequence (P53350 whole entry): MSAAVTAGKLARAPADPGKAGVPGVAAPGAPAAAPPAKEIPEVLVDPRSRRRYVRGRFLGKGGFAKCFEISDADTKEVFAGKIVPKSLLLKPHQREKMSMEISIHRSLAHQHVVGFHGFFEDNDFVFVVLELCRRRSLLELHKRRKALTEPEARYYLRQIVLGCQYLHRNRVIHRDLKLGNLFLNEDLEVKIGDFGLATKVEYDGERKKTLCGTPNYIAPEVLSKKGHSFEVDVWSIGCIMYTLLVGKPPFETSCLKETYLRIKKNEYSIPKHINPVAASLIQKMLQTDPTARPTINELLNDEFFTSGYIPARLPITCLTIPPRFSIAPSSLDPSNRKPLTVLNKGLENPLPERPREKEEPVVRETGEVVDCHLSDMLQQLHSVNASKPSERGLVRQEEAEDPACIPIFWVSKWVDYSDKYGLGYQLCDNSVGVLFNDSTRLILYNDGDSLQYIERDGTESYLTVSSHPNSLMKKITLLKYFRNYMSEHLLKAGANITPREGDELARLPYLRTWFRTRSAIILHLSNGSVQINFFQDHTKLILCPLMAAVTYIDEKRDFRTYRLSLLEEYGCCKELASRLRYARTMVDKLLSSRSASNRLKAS
# test.method.notes: PLK1 protein degradation in HeLa cells, Western blotting (PLK1/GAPDH ratio)
# Format: cell-based
# experimental.setup: thymidine block and release, 6 hours compound incubation, 10 points three-fold from 3 μM, PLK1 to GAPDH ratio, read-out: Dmax
readout: Dmax

[[record]]
compound = "COc1cc(C(=O)NC2CCN(CCC(=O)NCCCCCCCNC(=O)COc3cccc4c3C(=O)N(C3CCC(=O)NC3=O)C4=O)CC2)c(F)cc1Nc1ncc2c(n1)N(C1CCCC1)CC(F)(F)C(=O)N2C (stereo not shown) [Compound 60]"
value_reported = "≥ 80%"

[[record]]
compound = "COc1cc(C(=O)NC2CCN(CCCCCCCCCCNc3cccc4c3C(=O)N(C3CCC(=O)NC3=O)C4=O)CC2)c(F)cc1Nc1ncc2c(n1)N(C1CCCC1)CC(F)(F)C(=O)N2C (stereo not shown) [Compound 14]"
value_reported = "< 60%"

[[record]]
compound = "COc1cc(C(=O)NC2CCN(CC3CCN(c4cccc5c4C(=O)N(C4CCC(=O)NC4=O)C5=O)CC3)CC2)c(F)cc1Nc1ncc2c(n1)N(C1CCCC1)CC(F)(F)C(=O)N2C (stereo not shown) [Compound 65]"
value_reported = "≥ 80%"

[[record]]
compound = "COc1cc(C(=O)NC2CCN(CCOCCOCCOCCOCCNc3cccc4c3C(=O)N(C3CCC(=O)NC3=O)C4=O)CC2)c(F)cc1Nc1ncc2c(n1)N(C1CCCC1)CC(F)(F)C(=O)N2C (stereo not shown) [Compound 4]"
value_reported = "≥ 80%"

[[record]]
compound = "COc1cc(C(=O)NC2CCN(CCOCCOCCNc3cccc4c3C(=O)N(C3CCC(=O)NC3=O)C4=O)CC2)ccc1Nc1ncc2c(n1)N(C1CCCC1)CC(F)(F)C(=O)N2C (stereo not shown) [Example 96]"
value_reported = "≥ 80%"

[[record]]
compound = "COc1cc(C(=O)NCCCOCCCOCCNc2cccc3c2C(=O)N(C2CCC(=O)NC2=O)C3=O)ccc1Nc1ncc2c(n1)N(C1CCCC1)CC(F)(F)C(=O)N2C (stereo not shown) [Example 169]"
value_reported = "≥ 80%"

[[record]]
compound = "COc1cc(C(=O)NC2CCN(CC(=O)NCCOCCOCCOCCNc3cccc4c3C(=O)N(C3CCC(=O)NC3=O)C4=O)CC2)c(F)cc1Nc1ncc2c(n1)N(C1CCCC1)CC(F)(F)C(=O)N2C (stereo not shown) [Compound 36]"
value_reported = "≥ 80%"

[[record]]
compound = "COc1cc(C(=O)NC2CCN(CCCCCCCC(=O)Nc3cccc4c3C(=O)N(C3CCC(=O)NC3=O)C4=O)CC2)c(F)cc1Nc1ncc2c(n1)N(C1CCCC1)CC(F)(F)C(=O)N2C (stereo not shown) [Compound 38]"
value_reported = "60 to 80%"

[[record]]
compound = "COc1cc(C(=O)N[C@H]2CCN(C(=O)COCCOCCOCCOCCNc3cccc4c3C(=O)N(C3CCC(=O)NC3=O)C4=O)C2)c(F)cc1Nc1ncc2c(n1)N(C1CCCC1)CC(F)(F)C(=O)N2C (stereo partly shown) [Compound 116]"
value_reported = "≥ 80%"

[[record]]
compound = "CCOc1cc(C(=O)NC2CCN(CCOCCOCCNc3cccc4c3C(=O)N(C3CCC(=O)NC3=O)C4=O)CC2)c(F)cc1Nc1ncc2c(n1)N(C1CCCC1)CC(F)(F)C(=O)N2C (stereo not shown) [Example 90]"
value_reported = "60 to 80%"

[[record]]
compound = "COc1cc(C(=O)NC2CCN(CCOCCOc3cc(-c4scnc4C)ccc3CNC(=O)[C@@H]3C[C@@H](O)CN3C(=O)[C@@H](NC(=O)C3(F)CC3)C(C)(C)C)CC2)c(F)cc1Nc1ncc2c(n1)N(C1CCCC1)CC(F)(F)C(=O)N2C [Example 85]"
value_reported = "< 60%"

[[record]]
compound = "COc1cc(C(=O)NC2CCN(CCCCCNC(=O)COc3cccc4c3C(=O)N(C3CCC(=O)NC3=O)C4=O)CC2)c(F)cc1Nc1ncc2c(n1)N(C1CCCC1)CC(F)(F)C(=O)N2C (stereo not shown) [Compound 59]"
value_reported = "< 60%"

[[record]]
compound = "COc1cc(C(=O)N[C@H]2CCN(C(=O)CCC(=O)N3CCN(c4cccc5c4C(=O)N(C4CCC(=O)NC4=O)C5=O)CC3)C2)c(F)cc1Nc1ncc2c(n1)N(C1CCCC1)CC(F)(F)C(=O)N2C (stereo partly shown) [Compound 140]"
value_reported = "≥ 80%"

[[record]]
compound = "COc1cc(C(=O)NC2CCN(CCOCCOCCNc3cccc4c3C(=O)N(C3CCC(=O)N(C)C3=O)C4=O)CC2)c(F)cc1Nc1ncc2c(n1)N(C1CCCC1)CC(F)(F)C(=O)N2C (stereo not shown) [Compound 6]"
value_reported = "< 60%"

[[record]]
compound = "COc1cc(C(=O)NCCOCCOCCNc2ccc3c(c2)C(=O)N(C2CCC(=O)NC2=O)C3=O)c(F)cc1Nc1ncc2c(n1)N(C1CCCC1)CC(F)(F)C(=O)N2C (stereo not shown) [Compound 163]"
value_reported = "60 to 80%"

[[record]]
compound = "COc1cc(C(=O)NC2CCN(CCOCCOCCOCCNC(=O)COc3cccc4c3C(=O)N(C3CCC(=O)NC3=O)C4=O)CC2)c(F)cc1Nc1ncc2c(n1)N(C1CCCC1)CC(F)(F)C(=O)N2C (stereo not shown) [Compound 57]"
value_reported = "60 to 80%"

[[record]]
compound = "COc1cc(C(=O)NC2CCN(CCOCCOCCOCCNC(=O)CNc3cccc4c3C(=O)N(C3CCC(=O)NC3=O)C4=O)CC2)c(F)cc1Nc1ncc2c(n1)N(C1CCCC1)CC(F)(F)C(=O)N2C (stereo not shown) [Compound 30]"
value_reported = "≥ 80%"

[[record]]
compound = "COc1cc(C(=O)NC2CC3(C2)CN(C(=O)CCNc2cccc4c2C(=O)N(C2CCC(=O)NC2=O)C4=O)C3)c(F)cc1Nc1ncc2c(n1)N(C1CCCC1)CC(F)(F)C(=O)N2C (stereo not shown) [Compound 159]"
value_reported = "≥ 80%"

[[record]]
compound = "COc1cc(C(=O)NC2CCN(CCCCOCCCNc3cccc4c3C(=O)N(C3CCC(=O)NC3=O)C4=O)CC2)c(F)cc1Nc1ncc2c(n1)N(C1CCCC1)CC(F)(F)C(=O)N2C (stereo not shown) [Compound 19]"
value_reported = "60 to 80%"

